assay: in vivo; settings: mouse, oral, 10 ICR male mice, read-out: LD₅₀
Counter-ions that a name gives are not always drawn.
assay_endpoint: LD50

Documented LD50 of CC(C)(C)Nc1ccc(Sc2ccccc2)cc1 [test compound 1, hydrochloride] : > 5000 mg/kg

* * *

tested on: lipid level in blood; test: Action on the lipid level in blood (rats on high cholesterol feed); assay type: in vivo, Male Wistar strain rats; details: Rattus norvegicus, serum triglyceride, relative to the control, oral 25 mg/kg/day, starved 24 hours after final administration, read-out: TG decrease rate
Structures can show the parent of a compound that is named as a salt.
Recorded inhibition in vivo at 25 mg/kg/day, one value per entry.
Form entry: value (%) — number only.

Below, 2 molecules whose answers are already recorded.
> print(dat)
                                   molecule                      assay.endpoint  quantitative.readout
1  CC(C)(C)N(c1ccc(Oc2ccccc2)cc1)S(C)(=O)=O [compound of Reference Example 3]  inhibition in vivo at 25 mg/kg/day                  -2.1
2  CCOC(=O)C(C)(C)Oc1ccc(Cl)cc1 [clofibrate]  inhibition in vivo at 25 mg/kg/day                  -0.9

Documented inhibition in vivo at 25 mg/kg/day of CC(C)(C)Nc1ccc(Sc2ccccc2)cc1 [test compound 1, hydrochloride] : 48.5

Documented inhibition in vivo at 25 mg/kg/day of CCN(CC)c1ccc(Sc2ccc(C)cc2)cc1 [compound of Reference Example 4, N,N-diethyl-4-(4-tolylthio)aniline] : 30
